tested on: colon - HCT-116; assay: Antiproliferative assay (MTT) HCT-116; conditions: HCT-116, 100 µM
Average of Relative viability of cells (%) values, listed per item
Give your result in % as a bare value.

Solved entries:
Exercise: Tell me Average of Relative viability of cells (%) reported for Cc1nc(SCC(=O)Nc2nccs2)sc1C(=O)/C=C/c1ccc(Cl)cc1 [Compound 13b]
Key: 14.3

Exercise: Tell me Average of Relative viability of cells (%) reported for Cc1ccc(/C=C/C(=O)c2sc(SCC(=O)Nc3nccs3)nc2C)cc1 [Compound 13d]
Key: 9.2

Exercise: Tell me Average of Relative viability of cells (%) reported for Cc1nc(SCC(=O)Nc2nc(-c3ccc(Cl)cc3)cs2)sc1C(=O)/C=C/c1ccccc1 [Compound 10f]
Key: 23.6

Continuing:
Exercise: Tell me Average of Relative viability of cells (%) reported for COc1ccc(/C=C/C(=O)c2sc(SCC(=O)Nc3nc(-c4ccc(C)cc4)cs3)nc2C)cc1 [Compound 10o]
Key: 7.8

Exercise: Tell me Average of Relative viability of cells (%) reported for Cc1ccc(/C=C/C(=O)c2sc(SCC(=O)Nc3nc(-c4ccccc4)cs3)nc2C)cc1 [Compound 10d]
Key: 22.4

Exercise: Tell me Average of Relative viability of cells (%) reported for Cc1nc(SCC(=O)Nc2nc(-c3ccc(Cl)cc3)cs2)sc1C(=O)/C=C/c1ccc(F)cc1 [Compound 10h]
Key: 20.2

Exercise: Tell me Average of Relative viability of cells (%) reported for Cc1nc(SCC(=O)Nc2nccs2)sc1C(=O)/C=C/c1ccc(F)cc1 [Compound 13c]
Key: 16.1

Exercise: Tell me Average of Relative viability of cells (%) reported for Cc1ccc(-c2csc(NC(=O)CSc3nc(C)c(C(=O)/C=C/c4ccc(F)cc4)s3)n2)cc1 [Compound 10m]
Key: 28.4

FYI, the data here is from paper PMC12040969.
